TARGET_UNDER_TEST: stromelysin (MMP-3) (Homo sapiens, UniProt P08254)
Construct: enzymatic activity of the catalytic domains of human stromelysin and of neutrophil collagenase
Sequence (P08254 100-272 limits assumed): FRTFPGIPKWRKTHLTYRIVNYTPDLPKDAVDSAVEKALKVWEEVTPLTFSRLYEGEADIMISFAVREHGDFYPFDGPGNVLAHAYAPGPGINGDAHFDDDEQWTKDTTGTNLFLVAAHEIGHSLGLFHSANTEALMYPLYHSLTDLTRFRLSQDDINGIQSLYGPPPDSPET
TEST_SUMMARY: Enzyme inhibition of the catalytic domain of human stromelysin (fluorogenic substrate)
ASSAY_CONTEXT: 15 min preincubation, pH=6.5, fluorescence 328 nm (ex)/393 nm (em)
pIC50: −log10 of the molar value.
Listed molecules paired with reported pIC50

{"COMPOUND": "O=C(NCCC[C@H](NS(=O)(=O)c1ccc(-c2ccc(Cl)cc2)cc1)C(=O)O)c1cc(F)ccc1F", "pIC50": 7.52}
{"COMPOUND": "NCCCC[C@H](NS(=O)(=O)c1ccc(-c2ccc(Cl)cc2)cc1)C(=O)O", "pIC50": 7.22}
{"COMPOUND": "NC(=O)NCCCC[C@@H](NS(=O)(=O)c1ccc(-c2ccc(Cl)cc2)cc1)C(=O)O", "pIC50": 7.40}
{"COMPOUND": "CC(C)(C)OC(=O)NCCC[C@H](NS(=O)(=O)c1ccc(-c2ccccc2)cc1)C(=O)O", "pIC50": 7.52}

###

TARGET_UNDER_TEST: neutrophil collagenase (MMP-8) (Homo sapiens, UniProt P22894)
Construct: enzymatic activity of the catalytic domains of human stromelysin and of neutrophil collagenase
Sequence (P22894 100-262 limits assumed): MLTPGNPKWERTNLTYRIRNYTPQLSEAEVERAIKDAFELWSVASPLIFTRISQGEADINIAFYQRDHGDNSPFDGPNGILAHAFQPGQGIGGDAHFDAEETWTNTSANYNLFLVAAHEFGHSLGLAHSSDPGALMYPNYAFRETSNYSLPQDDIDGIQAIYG
TEST_SUMMARY: Enzyme inhibition of the catalytic domain of neutrophil collagenase (fluorogenic substrate)
ASSAY_CONTEXT: 15 min preincubation, pH=6.5, fluorescence 328 nm (ex)/393 nm (em)
Recorded IC50 by entry
PARAMETER_MEASURED: IC50 (nM)

{"COMPOUND": "Cc1oncc1C(=O)NCCCC[C@@H](NS(=O)(=O)c1ccc(-c2ccc(Cl)cc2)cc1)C(=O)O", "MEAS_VALUE": 20}
{"COMPOUND": "Cc1cc(C(=O)NCCC[C@H](NS(=O)(=O)c2ccc(-c3ccc(Cl)cc3)cc2)C(=O)O)ccc1[N+](=O)[O-]", "MEAS_VALUE": 10}
{"COMPOUND": "O=C(/C=C/c1ccc(F)cc1)NCCC[C@H](NS(=O)(=O)c1ccc(-c2ccc(Cl)cc2)cc1)C(=O)O", "MEAS_VALUE": 5}
{"COMPOUND": "Cc1ccc(C(=O)NCCC[C@H](NS(=O)(=O)c2ccc(-c3ccc(Cl)cc3)cc2)C(=O)O)s1", "MEAS_VALUE": 4}
{"COMPOUND": "O=C(NCCC[C@H](NS(=O)(=O)c1ccc(-c2ccc(Cl)cc2)cc1)C(=O)O)c1ccco1", "MEAS_VALUE": 2}
{"COMPOUND": "O=C(O)[C@H](CCCN(Cc1ccccc1)C(=O)C1CC1)NS(=O)(=O)c1ccc(-c2ccc(Cl)cc2)cc1", "MEAS_VALUE": 3}
{"COMPOUND": "O=C(NCCC[C@H](NS(=O)(=O)c1ccc(-c2ccc(Cl)cc2)cc1)C(=O)O)c1cnccn1", "MEAS_VALUE": 5}
{"COMPOUND": "O=C(NCCC[C@H](NS(=O)(=O)c1ccc(-c2ccc(Cl)cc2)cc1)C(=O)O)c1ccc(O)cc1", "MEAS_VALUE": 5}
{"COMPOUND": "COc1ccc(C(=O)NCCC[C@H](NS(=O)(=O)c2ccc(-c3ccc(Cl)cc3)cc2)C(=O)O)c(OC)c1", "MEAS_VALUE": 8}
{"COMPOUND": "CC(C)(C)OC(=O)NCCC[C@H](NS(=O)(=O)c1ccc(-c2ccc(Cl)cc2)cc1)C(=O)O [Example 14]", "MEAS_VALUE": 3}
{"COMPOUND": "CC(=O)Oc1ccccc1C(=O)NCCC[C@H](NS(=O)(=O)c1ccc(-c2ccccc2)cc1)C(=O)O", "MEAS_VALUE": 6}
{"COMPOUND": "NC(=O)NCCCC[C@@H](NS(=O)(=O)c1ccc(-c2ccc(Cl)cc2)cc1)C(=O)O", "MEAS_VALUE": 5}
{"COMPOUND": "O=C(CC[C@H](C(=O)O)c1ccccc1)NCCC[C@H](NS(=O)(=O)c1ccc(-c2ccc(Cl)cc2)cc1)C(=O)O", "MEAS_VALUE": 2}
{"COMPOUND": "O=C(O)C1CC1C(=O)NCCC[C@H](NS(=O)(=O)c1ccc(-c2ccc(Cl)cc2)cc1)C(=O)O (stereo partly drawn)", "MEAS_VALUE": 2}
{"COMPOUND": "CC(C)(C)C(=O)NCCC[C@H](NS(=O)(=O)c1ccc(-c2ccc(Cl)cc2)cc1)C(=O)O", "MEAS_VALUE": 8}

###

TARGET_UNDER_TEST: neutrophil collagenase (MMP-8) (Homo sapiens, UniProt P22894)
Construct: enzymatic activity of the catalytic domains of human stromelysin and of neutrophil collagenase
TEST_SUMMARY: Enzyme inhibition of the catalytic domain of neutrophil collagenase (fluorogenic substrate)
ASSAY_CONTEXT: 15 min preincubation, pH=6.5, fluorescence 328 nm (ex)/393 nm (em)
pIC50: −log10 of the molar value.
As shown below, each of these molecules has a reported pIC50 value.

{"MOLECULE": "O=C(O)C(CCCN1C(=O)c2ccccc2C1=O)NS(=O)(=O)c1ccc(-c2ccccc2)cc1 (racemic)", "pIC50": 8.30}
{"MOLECULE": "O=C(NCCC[C@@H](NS(=O)(=O)c1ccc(-c2ccc(Cl)cc2)cc1)C(=O)O)Nc1ccccc1", "pIC50": 8.52}
{"MOLECULE": "CC1(C)C(C(=O)NCCC[C@H](NS(=O)(=O)c2ccc(-c3ccc(Cl)cc3)cc2)C(=O)O)C1(C)C", "pIC50": 8.52}
{"MOLECULE": "O=C(/C=C/c1ccccc1)NCCC[C@H](NS(=O)(=O)c1ccc(-c2ccc(Cl)cc2)cc1)C(=O)O", "pIC50": 8.00}

###

TARGET_UNDER_TEST: neutrophil collagenase (MMP-8) (Homo sapiens, UniProt P22894)
Construct: enzymatic activity of the catalytic domains of human stromelysin and of neutrophil collagenase
TEST_SUMMARY: Enzyme inhibition of the catalytic domain of neutrophil collagenase (fluorogenic substrate)
ASSAY_CONTEXT: 15 min preincubation, pH=6.5, fluorescence 328 nm (ex)/393 nm (em)
PARAMETER_MEASURED: IC50 (nM)

{"COMPOUND": "O=C(CC1CCCCC1)NCCC[C@H](NS(=O)(=O)c1ccc(-c2ccc(Cl)cc2)cc1)C(=O)O [Example 108]", "PARAMETER_MEASURED": "IC50", "MEAS_VALUE": 5}
{"COMPOUND": "Cc1ccc(S(=O)(=O)NC(=N)NCCC[C@@H](NS(=O)(=O)c2ccc(-c3ccc(Cl)cc3)cc2)C(=O)O)cc1 [Example 22]", "PARAMETER_MEASURED": "IC50", "MEAS_VALUE": 80}
{"COMPOUND": "O=C(NCCC[C@H](NS(=O)(=O)c1ccc(-c2ccc(Cl)cc2)cc1)C(=O)O)c1cccc(F)c1 [Example 95]", "PARAMETER_MEASURED": "IC50", "MEAS_VALUE": 4}
{"COMPOUND": "O=C(O)[C@H](CCCN1C(=O)c2ccccc2S1(=O)=O)NS(=O)(=O)c1ccc(-c2ccc(Cl)cc2)cc1 [Example 134]", "PARAMETER_MEASURED": "IC50", "MEAS_VALUE": 2}

###

// reported IC50 per item
TARGET_UNDER_TEST: neutrophil collagenase (MMP-8) (Homo sapiens)
Construct: enzymatic activity of the catalytic domains of human stromelysin and of neutrophil collagenase
TEST_SUMMARY: Enzyme inhibition of the catalytic domain of neutrophil collagenase (fluorogenic substrate)
ASSAY_CONTEXT: 15 min preincubation, pH=6.5, fluorescence 328 nm (ex)/393 nm (em)

{"COMPOUND": "O=C(NCCC[C@H](NS(=O)(=O)c1ccc(-c2ccc(Cl)cc2)cc1)C(=O)O)c1ccc2[nH]cnc2c1", "IC50 / nM": 10}
{"COMPOUND": "O=C(NCCC[C@H](NS(=O)(=O)c1ccc(-c2ccc(Cl)cc2)cc1)C(=O)O)c1ccc(C(F)(F)F)cc1", "IC50 / nM": 6}
{"COMPOUND": "O=C(NCCC[C@H](NS(=O)(=O)c1ccc(-c2ccc(Cl)cc2)cc1)C(=O)O)C1CC1", "IC50 / nM": 2}
{"COMPOUND": "O=C(NCCC[C@H](NS(=O)(=O)c1ccc(-c2ccc(Cl)cc2)cc1)C(=O)O)c1ccccn1", "IC50 / nM": 2}
{"COMPOUND": "O=C(NCCC[C@@H](NS(=O)(=O)c1ccc(-c2ccc(Cl)cc2)cc1)C(=O)O)c1ccc2c(c1)OCO2", "IC50 / nM": 7}
{"COMPOUND": "O=C(NCCC[C@H](NS(=O)(=O)c1ccc(-c2ccc(Cl)cc2)cc1)C(=O)O)c1ccccc1C(F)(F)F", "IC50 / nM": 2}
{"COMPOUND": "O=C(CC[C@@H](C(=O)O)c1ccccc1)NCCC[C@H](NS(=O)(=O)c1ccc(-c2ccc(Cl)cc2)cc1)C(=O)O", "IC50 / nM": 3}
{"COMPOUND": "Cc1ccsc1C(=O)NCCC[C@H](NS(=O)(=O)c1ccc(-c2ccc(Cl)cc2)cc1)C(=O)O", "IC50 / nM": 2}
